# Test system: Sodium Channel, Site 2
# assay.overview: Inhibition of binding of [3H]BTX-B to Wistar rat brain
# settings: 10 μM
Assignment: determine reported [3H]BTX-B binding % inhibition (@ 10 μM) for the given compounds.
Numbers only, in %.

{"columns": ["compound", "experimental.target", "[3H]BTX-B binding % inhibition (@ 10 μM), %"],
 "data": [
  ["N=c1nc(N)c(-c2cccc(Cl)c2Cl)nn1CC(Cl)(Cl)Cl [CEN-216]", "Sodium Channel, Site 2", 42],
  ["N=c1nc(N)c(-c2cccc(Cl)c2Cl)nn1CC(F)(F)C(F)F [CEN-218]", "Sodium Channel, Site 2", 108],
  ["N=c1nc(N)c(-c2cccc(Cl)c2Cl)nn1CC(F)(F)C(F)(F)F [CEN-217]", "Sodium Channel, Site 2", 105]
]}

For the compound N=c1nc(N)c(-c2cc(Cl)cc(Cl)c2Cl)nn1CC(Cl)(Cl)Cl [CEN-248] , what [3H]BTX-B binding % inhibition (@ 10 μM) is on record?
27

---

# experimental.target: hERG (Homo sapiens)
# Construct: host or cells: HEK-293
# Sequence (Q12809 whole entry): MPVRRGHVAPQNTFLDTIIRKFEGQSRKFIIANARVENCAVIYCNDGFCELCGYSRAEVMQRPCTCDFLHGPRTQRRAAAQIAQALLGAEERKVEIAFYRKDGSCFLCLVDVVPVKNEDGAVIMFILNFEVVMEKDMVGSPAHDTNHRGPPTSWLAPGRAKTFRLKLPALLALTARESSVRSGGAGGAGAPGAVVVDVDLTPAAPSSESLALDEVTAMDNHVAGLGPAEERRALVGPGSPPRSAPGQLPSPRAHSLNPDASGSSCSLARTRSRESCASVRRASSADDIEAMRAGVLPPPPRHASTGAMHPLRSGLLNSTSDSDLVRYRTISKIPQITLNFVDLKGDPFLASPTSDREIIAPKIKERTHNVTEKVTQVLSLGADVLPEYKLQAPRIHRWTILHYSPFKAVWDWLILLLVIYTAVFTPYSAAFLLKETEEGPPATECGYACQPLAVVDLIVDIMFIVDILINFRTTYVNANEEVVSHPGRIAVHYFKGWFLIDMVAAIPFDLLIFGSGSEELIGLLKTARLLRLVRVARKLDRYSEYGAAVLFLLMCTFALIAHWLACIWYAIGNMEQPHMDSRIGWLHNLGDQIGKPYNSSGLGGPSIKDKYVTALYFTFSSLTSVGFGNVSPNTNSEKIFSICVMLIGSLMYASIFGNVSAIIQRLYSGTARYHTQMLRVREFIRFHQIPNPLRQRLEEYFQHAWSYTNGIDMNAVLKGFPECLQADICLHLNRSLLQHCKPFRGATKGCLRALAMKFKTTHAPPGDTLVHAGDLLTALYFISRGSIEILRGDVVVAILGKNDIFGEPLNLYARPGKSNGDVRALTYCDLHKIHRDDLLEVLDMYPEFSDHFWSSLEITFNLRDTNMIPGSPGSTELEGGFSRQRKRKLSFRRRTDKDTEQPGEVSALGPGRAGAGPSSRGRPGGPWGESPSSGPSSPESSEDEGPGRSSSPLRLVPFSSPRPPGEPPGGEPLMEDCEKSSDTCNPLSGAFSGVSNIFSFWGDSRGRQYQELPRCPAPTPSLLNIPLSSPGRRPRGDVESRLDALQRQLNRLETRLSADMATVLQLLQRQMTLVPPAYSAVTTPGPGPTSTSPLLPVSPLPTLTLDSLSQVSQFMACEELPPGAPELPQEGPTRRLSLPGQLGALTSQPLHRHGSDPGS
# assay.overview: Inhibition of binding of [3H]astemizole to HEK-293 cells expressing hERG
# settings: extrapolated; read-out: hERG ([3H]astemizole) (extrapolated IC50 μM)
metric: IC50 (µM)
Numbers only, in µM.

Below, 2 compounds whose answers are already recorded.
{"columns": ["compound", "scale.unit", "IC50"],
 "data": [
  ["N=c1nc(N)c(-c2cccc(Cl)c2Cl)nn1CC(Cl)(Cl)Cl [CEN-216]", "µM", 50],
  ["N=c1nc(N)c(-c2cccc(Cl)c2Cl)nn1CC(F)(F)C(F)(F)F [CEN-217]", "µM", 26]
]}

Now consider the entry below.
IC50 for N=c1nc(N)c(-c2cccc(Cl)c2Cl)nn1CC(F)(F)C(F)F [CEN-218] ?
40

---

# experimental.target: Sodium Channel, Site 2
# assay.overview: Inhibition of binding of [3H]BTX-B to Wistar rat brain
# settings: read-out: [3H]BTX-B binding Extrapolated IC50
metric: IC50

{"columns": ["smiles.str", "experimental.target", "IC50"],
 "data": [
  ["N=c1nc(N)c(-c2cccc(Cl)c2Cl)nn1CC(F)(F)C(F)(F)F", "Sodium Channel, Site 2", "< 0.5 µM"],
  ["N=c1nc(N)c(-c2cccc(Cl)c2Cl)nn1CC(Cl)(Cl)Cl", "Sodium Channel, Site 2", "13.8 µM"],
  ["N=c1nc(N)c(-c2cccc(Cl)c2Cl)nn1CC(F)(F)C(F)F", "Sodium Channel, Site 2", "< 0.5 µM"]
]}

// next item, IC50 requested
Consider the compound `N=c1nc(N)c(-c2cc(Cl)cc(Cl)c2Cl)nn1CC(Cl)(Cl)Cl` and give its measured IC50.
27 µM

---

# System: maximal electroshock-induced tonic convulsions
# assay.overview: Rat MES (Maximal ElectroShock) anticonvulsant test
# Type: in vivo
# settings: 100 mg/kg po; n = 5 rats
Structures can show the parent of a compound that is named as a salt.
For each of the compounds below, state its MES Results (% protection).
Answers are plain numbers, in %.

{"columns": ["compound", "scale.unit", "MES Results (% protection)"],
 "data": [
  ["N=c1nc(N)c(-c2cccc(Cl)c2Cl)nn1CC(F)(F)C(F)(F)F", "%", 60],
  ["N=c1nc(N)c(-c2cccc(Cl)c2Cl)nn1CC(F)(F)C(F)F", "%", 40],
  ["O=C1NC(=O)C(c2ccccc2)(c2ccccc2)N1 [DiPhenylHydantoin, Diphenylhydantoin sodium salt, reference compound]", "%", 80]
]}

So what's the measured MES Results (% protection) for this one? `N=c1nc(N)c(-c2cccc(Cl)c2Cl)nn1CC(Cl)(Cl)Cl`
100
